method: Cytotoxicity against human BGC823 cells assessed as inhibition of cell proliferation after 72 hrs by MTT assay
Format: functional, cell-based
test_settings: BGC-823, 72 h

{"compound_smiles": "CC1(C)CC[C@]2(C(=O)OCCCCn3ccc(=O)[nH]c3=O)CC[C@]3(C)C(=CC[C@@H]4[C@@]5(C)CC[C@H](O)C(C)(C)[C@@H]5CC[C@]43C)[C@@H]2C1", "IC50 [nM]": 930}
{"compound_smiles": "Cc1cn(CCOC(=O)[C@]23CCC(C)(C)C[C@H]2C2=CC[C@@H]4[C@@]5(C)CC[C@H](O)C(C)(C)[C@@H]5CC[C@@]4(C)[C@]2(C)CC3)c(=O)n(CCOC(=O)[C@]23CCC(C)(C)C[C@H]2C2=CC[C@@H]4[C@@]5(C)CC[C@H](O)C(C)(C)[C@@H]5CC[C@@]4(C)[C@]2(C)CC3)c1=O", "IC50 [nM]": 1890}
{"compound_smiles": "O=c1[nH]cc(F)c(=O)[nH]1", "IC50 [nM]": 8820}
{"compound_smiles": "Cc1cn(CCCCCCOC(=O)[C@]23CCC(C)(C)C[C@H]2C2=CC[C@@H]4[C@@]5(C)CC[C@H](O)C(C)(C)[C@@H]5CC[C@@]4(C)[C@]2(C)CC3)c(=O)[nH]c1=O", "IC50 [nM]": 370}
{"compound_smiles": "Cc1cn(CCCCCCOC(=O)[C@]23CCC(C)(C)C[C@H]2C2=CC[C@@H]4[C@@]5(C)CC[C@H](O)C(C)(C)[C@@H]5CC[C@@]4(C)[C@]2(C)CC3)c(=O)n(CCCCCCOC(=O)[C@]23CCC(C)(C)C[C@H]2C2=CC[C@@H]4[C@@]5(C)CC[C@H](O)C(C)(C)[C@@H]5CC[C@@]4(C)[C@]2(C)CC3)c1=O", "IC50 [nM]": 620}
